Test system: EFO-27;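 also: growth inhibition of EFO-27 cells, read out with a cell viability assay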
Protocol description: cells
Type: functional, cell-based, Homo sapiens
Experimental context: efo-27
Description: SANGER: Inhibition of human EFO-27 cell growth in a cell viability assay.
Recorded endpoint: IC50 (nM)
One number for each entry, in nM.

Req: Tell me the measured IC50 of BLEOMYCIN , please.
Resp: 571

###

System: CTB-1
Protocol description: cells
Type: functional, cell-based, Homo sapiens
Experimental context: Homo sapiens, CTB-1
Description: SANGER: Inhibition of human CTB-1 cell growth in a cell viability assay.
Recorded endpoint: IC50

Examples from the recorded data:
Molecule	IC50
Oc1ccc2ccccc2c1SSc1c(O)ccc2ccccc12	12.7 µM
CN(C)C(=N)NC(=N)N [METFORMIN]	> 20000 µM
Cn1cnc2c(F)c(Nc3ccc(Br)cc3Cl)c(C(=O)NOCCO)cc21 [SELUMETINIB]	> 4 µM
CC(=O)O[C@H]1C(=O)[C@@]2(C)[C@H]([C@H](OC(=O)c3ccccc3)[C@]3(O)C[C@H](OC(=O)[C@H](O)[C@@H](NC(=O)c4ccccc4)c4ccccc4)C(C)=C1C3(C)C)[C@]1(OC(C)=O)CO[C@@H]1C[C@@H]2O [PACLITAXEL]	0.0781 µM
O=C(O)c1ccc(-c2c[nH]c3ncc(-c4ccccc4)cc23)cc1C1CCCC1 [GSK-650394]	> 16 µM

Take each entry in turn and give its IC50.
1. CCN(CC)CCNC(=O)c1c(C)[nH]c(/C=C2\C(=O)Nc3ccc(F)cc32)c1C [SUNITINIB]
2. COc1cc(-c2nn([C@H]3CC[C@H](N4CCN(C(C)=O)CC4)CC3)c3ncnc(N)c23)ccc1NC(=O)c1cc2ccccc2n1C
3. CC[C@H](CO)Nc1nc(NCc2ccccc2)c2ncn(C(C)C)c2n1 [SELICICLIB]
4. N[C@@H](CSC(c1ccccc1)(c1ccccc1)c1ccccc1)C(=O)O [S-TRITYL-L-CYSTEINE]

Resp:
1. > 8 µM
2. > 5.12 µM
3. > 16 µM
4. 3.2 µM

Ref: ChEMBL document CHEMBL1201861
